Study system: human NHE3 (Homo sapiens)
Sequence (P48764 26-834): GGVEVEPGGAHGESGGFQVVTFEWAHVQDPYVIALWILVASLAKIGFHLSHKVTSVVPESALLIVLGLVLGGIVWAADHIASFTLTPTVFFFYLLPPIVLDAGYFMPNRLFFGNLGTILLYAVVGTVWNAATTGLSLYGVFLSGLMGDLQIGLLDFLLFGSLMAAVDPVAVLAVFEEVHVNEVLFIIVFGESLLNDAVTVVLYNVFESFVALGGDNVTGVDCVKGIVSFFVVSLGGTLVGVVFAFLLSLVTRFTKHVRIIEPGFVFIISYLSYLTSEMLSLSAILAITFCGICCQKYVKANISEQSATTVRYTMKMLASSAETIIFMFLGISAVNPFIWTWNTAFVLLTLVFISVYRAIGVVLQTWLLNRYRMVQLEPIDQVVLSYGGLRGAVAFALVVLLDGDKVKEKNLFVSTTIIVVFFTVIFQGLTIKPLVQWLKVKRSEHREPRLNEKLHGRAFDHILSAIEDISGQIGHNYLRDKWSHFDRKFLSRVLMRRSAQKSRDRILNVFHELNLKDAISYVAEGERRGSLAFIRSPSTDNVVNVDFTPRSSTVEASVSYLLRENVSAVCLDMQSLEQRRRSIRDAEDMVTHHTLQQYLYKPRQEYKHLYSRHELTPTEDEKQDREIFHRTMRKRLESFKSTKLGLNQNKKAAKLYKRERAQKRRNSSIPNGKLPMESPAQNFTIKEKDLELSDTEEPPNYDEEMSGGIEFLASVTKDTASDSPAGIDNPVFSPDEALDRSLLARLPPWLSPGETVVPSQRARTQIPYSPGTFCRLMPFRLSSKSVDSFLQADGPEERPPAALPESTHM
Procedure summary: NHE3 inhibition test (recovery of intracellular pH in cell line stably expressing human NHE3)
Run parameters: OK cells deficient in endogenous NHE stably expressing human NHE3; BCECF fluorescence, initial rate of pH recovery; read-out: human NHE3 inhibitory activity IC50
Counter-ions that a name gives are not always drawn.
Measurement kind: IC50 (nM)

// known answers, use as guide
Compound	Study system	IC50, nM
CN1Cc2c(Cl)cc(Cl)cc2[C@H](c2cccc(-c3cn(CCOCCOCCOCCOCCOCCNC(=O)[C@H](O)[C@@H](O)C(=O)NCCOCCOCCOCCOCCOCCn4cc(-c5cccc([C@@H]6CN(C)Cc7c(Cl)cc(Cl)cc76)c5)nn4)nn3)c2)C1 [Example 6-10, hydrochloride]	human NHE3 (Homo sapiens)	6.2
CN1Cc2c(Cl)cc(Cl)cc2[C@H](c2cccc(-c3cn(CCOCCOCCOCCNC(=O)[C@H](O)[C@@H](O)C(=O)NCCOCCOCCOCCn4cc(-c5cccc([C@@H]6CN(C)Cc7c(Cl)cc(Cl)cc76)c5)nn4)nn3)c2)C1 [Example 8-5, hydrochloride]	human NHE3 (Homo sapiens)	2.8
CN1Cc2c(Cl)cc(Cl)cc2[C@H](c2cccc(-c3cn(CCOCCOCCNC(=O)COCC(=O)NCCOCCOCCn4cc(-c5cccc([C@@H]6CN(C)Cc7c(Cl)cc(Cl)cc76)c5)nn4)nn3)c2)C1 [Example 6-4, hydrochloride]	human NHE3 (Homo sapiens)	97.6
CN1Cc2c(Cl)cc(Cl)cc2[C@H](c2cccc(-c3cn(CCOCCOCCOCCOCCOCCNC(=O)NCCCCNC(=O)NCCOCCOCCOCCOCCOCCn4cc(-c5cccc([C@@H]6CN(C)Cc7c(Cl)cc(Cl)cc76)c5)nn4)nn3)c2)C1.Cl	human NHE3 (Homo sapiens)	3.2

P = CN1Cc2c(Cl)cc(Cl)cc2[C@H](c2cccc(-c3ncccn3)c2)C1 [Example 1-16, trifluoroacetate]
Q = CN1Cc2c(Cl)cc(Cl)cc2[C@H](c2cccc(-c3cn(CCOCCOCCOCCNC(=O)NCCCCCCNC(=O)NCCOCCOCCOCCn4cc(-c5cccc([C@@H]6CN(C)Cc7c(Cl)cc(Cl)cc76)c5)nn4)nn3)c2)C1
Ask: Please tell me which of the two, P or Q , has the higher reported IC50 value. Respond with the label that goes with your answer.
Result: P

This collection of values is drawn from patent US9932331B2.
